molecular target: T1, recombinant human Fc-PD-1 protein (human, UniProt Q15116 25-170); assay: Biacore, Fab, human Fc-PD-1
T1 construct: may be the same protein as the PD-1 Fc fusion of the Luminex assays; also called recombinant human PD-1 in an Fc fusion construct; not shown: Fc part not described
T1 sequence (Q15116 25-170): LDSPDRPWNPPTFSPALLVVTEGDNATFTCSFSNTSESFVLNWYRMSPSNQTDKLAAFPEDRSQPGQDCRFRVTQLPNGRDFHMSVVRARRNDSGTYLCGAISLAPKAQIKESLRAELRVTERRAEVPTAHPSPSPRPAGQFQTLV
metric_name: kon (M⁻¹ s⁻¹)

A35774 (Fab, V domains shown, humanized Fab clone of 135C12; also called humanized antibody A35774) VH: EVQLVQSGAEVKKPGESLKISCKGSGYSFTNFYIHWVRQAPGQRLEWMGSIYPNYGDTAYNQKFKDRFVFSLDTSVSTAYLQISSLKAEDTAVYYCARGYSYAMDYWGQGTTVTVSS VL: DIQMTQSPSSVSASVGDRVTITCSASQGISGDLNWYQQKPGKAPKLLIYHTSSLHSGVPSRFSGSGSGTDFTLTISSLQPEDFATYYCQYYSKDLLTFGGGTKLEIK
80900
A35775 (Fab, V domains shown, humanized Fab clone of 135C12; also called humanized antibody A35775) VH: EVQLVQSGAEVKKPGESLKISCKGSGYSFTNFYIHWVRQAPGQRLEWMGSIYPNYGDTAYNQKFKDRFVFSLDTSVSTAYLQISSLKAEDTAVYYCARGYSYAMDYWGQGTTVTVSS VL: DIQMTQSPSSVSASVGDRVTITCSASQGISGDLNWYQQKPGQAPRLLIYHTSSLHSGVPSRFSGSGSGTDFTLTISSLQPEDFATYYCQYYSKDLLTFGGGTKLEIK
80200
A35783 (Fab, V domains shown, humanized Fab clone of 135C12; also called humanized antibody A35783) VH: EVQLVQSGAEVKKPGESLKISCKGSGYSFTNFYIHWVRQARGQRLEWIGSIYPNYGDTAYNQKFKDRFVFSLDTSVSTAYLQISSLKAEDTAVYYCARGYSYAMDYWGQGTTVTVSS VL: DIQMTQSPSSLSASVGDRVTITCSASQGISGDLNWYQQKPGKTPKLLIYHTSSLHSGVPSRFSGSGSGTDFTLTISSLQPEDFATYYCQYYSKDLLTFGGGTKLEIK
76800
